System tested: recombinant human or murine heat shock protein 70 (hsp70)
Format: binding
Condition parameters: read-out: Epitope alone: Affinity for hsp70
Exercise: state measured log10 of Kd for each of the sequences provided.
Recall that a logarithmic scale is used here: each number is log10 of Kd in µM.

The sequence AFHHVAREL [reference compound] showed log10 of Kd equal to 1.92

The sequence ALKHRAYEL [reference compound] showed log10 of Kd equal to 1.99

The sequence IMDQVPFSV [Gp100 (“IMD”), reference compound] showed log10 of Kd equal to 3.41

The sequence AIIRILQQL [reference compound] showed log10 of Kd equal to 1.97

The sequence VLDVGDAYFSV [reference compound] showed log10 of Kd equal to 2.04

The sequence SVYDFFVWL [reference compound] showed log10 of Kd equal to 1.91

The sequence SLFNTVATL [reference compound] showed log10 of Kd equal to 1.54

The sequence GLYDGMEHL [reference compound] showed log10 of Kd equal to 1.68

The sequence VIYQYMDDL [reference compound] showed log10 of Kd equal to 1.96

The sequence YLEPGPVTV [reference compound] showed log10 of Kd equal to 1.85

The sequence YMDGTMSQV [Tyrosinase (“YMD”), reference compound] showed log10 of Kd equal to 2.32

The sequence ILKEPVHGV [reference compound] showed log10 of Kd equal to 1.92

The sequence KASEKIFYV [reference compound] showed log10 of Kd equal to 1.76
